Would you kindly list 3D fluorescence intensity for each of these compounds?
- Tested target: BSA (Bos taurus)
- Construct: purchased Aladdin's Reagent Co., Ltd. (Shanghai, China)
- Experiment summary: Three-dimensional fluorescence spectroscopy of BSA
- Assay type: binding, bovine
- Condition context: Peak a (Rayleigh scattering), [BSA]:[compound] = 1:3, 298 K
Numbers only, in a.u.

Previously resolved entries follow.
>>> readout_number("O=c1c(-c2ccc(O)cc2)coc2cc(O)cc(O)c12 [Genistein]")
159.6
>>> readout_number("COC(=O)C(NC(=O)COc1cc(O)c2c(=O)c(-c3ccc(O)cc3)coc2c1)C(C)C (centres unmarked) [4c]")
210.9
>>> readout_number("COC(=O)CNC(=O)COc1cc(O)c2c(=O)c(-c3ccc(O)cc3)coc2c1 [4a]")
167.9

Quick batch: 3D fluorescence intensity for everything below.
1. COC(=O)C(C)NC(=O)COc1cc(O)c2c(=O)c(-c3ccc(O)cc3)coc2c1 (centres unmarked) [4b]
2. COC(=O)C(CC(C)C)NC(=O)COc1cc(O)c2c(=O)c(-c3ccc(O)cc3)coc2c1 (centres unmarked) [4d]

1. 140.7
2. 155.5

###

- Tested target: BSA (Bos taurus, UniProt P02769)
- Construct: purchased Aladdin's Reagent Co., Ltd. (Shanghai, China)
- Sequence (P02769 25-607): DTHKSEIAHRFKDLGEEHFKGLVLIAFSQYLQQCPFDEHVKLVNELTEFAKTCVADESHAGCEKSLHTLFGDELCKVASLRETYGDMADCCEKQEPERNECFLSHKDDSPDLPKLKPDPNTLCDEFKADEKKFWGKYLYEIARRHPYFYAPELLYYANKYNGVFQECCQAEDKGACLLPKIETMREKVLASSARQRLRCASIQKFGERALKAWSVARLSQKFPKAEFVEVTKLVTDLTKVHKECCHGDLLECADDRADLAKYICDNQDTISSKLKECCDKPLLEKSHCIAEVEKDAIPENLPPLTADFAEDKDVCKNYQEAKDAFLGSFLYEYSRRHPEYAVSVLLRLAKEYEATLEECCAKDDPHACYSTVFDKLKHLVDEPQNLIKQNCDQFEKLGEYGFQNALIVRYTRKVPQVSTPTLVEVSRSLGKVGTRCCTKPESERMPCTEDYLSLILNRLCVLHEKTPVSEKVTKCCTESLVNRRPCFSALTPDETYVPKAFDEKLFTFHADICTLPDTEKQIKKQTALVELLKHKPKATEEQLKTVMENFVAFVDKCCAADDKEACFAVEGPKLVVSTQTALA
- Experiment summary: Fluorescence quenching of BSA (Stern-Volmer, double-log, van't Hoff)
- Format: binding, bovine
- Condition context: T 306 K; read-out: K b (binding constant) (converted)
Would you kindly list Kd for each of these molecules?
One number for each entry, in nM.

Previously resolved entries follow.
>>> readout_number("COC(=O)C(NC(=O)COc1cc(O)c2c(=O)c(-c3ccc(O)cc3)coc2c1)C(C)C (centres unmarked)")
119
>>> readout_number("COC(=O)CNC(=O)COc1cc(O)c2c(=O)c(-c3ccc(O)cc3)coc2c1")
9.52
>>> readout_number("O=c1c(-c2ccc(O)cc2)coc2cc(O)cc(O)c12")
415
>>> readout_number("COC(=O)C(C)NC(=O)COc1cc(O)c2c(=O)c(-c3ccc(O)cc3)coc2c1 (centres unmarked)")
79.4

We now examine a further molecule.
Please supply the value of reported Kd for the item COC(=O)C(CC(C)C)NC(=O)COc1cc(O)c2c(=O)c(-c3ccc(O)cc3)coc2c1 (centres unmarked) 209

###

- Tested target: BSA (Bos taurus, UniProt P02769)
- Construct: purchased Aladdin's Reagent Co., Ltd. (Shanghai, China)
- Experiment summary: Fluorescence quenching of BSA (Stern-Volmer, double-log, van't Hoff)
- Type: binding, bovine
- Condition context: T 310 K
Assay endpoint: n (binding sites)
Answers are plain numbers.

Previously resolved entries follow.
>>> readout_number("COC(=O)C(C)NC(=O)COc1cc(O)c2c(=O)c(-c3ccc(O)cc3)coc2c1 (centres unmarked)")
1.23
>>> readout_number("COC(=O)C(CC(C)C)NC(=O)COc1cc(O)c2c(=O)c(-c3ccc(O)cc3)coc2c1 (centres unmarked)")
1.28
>>> readout_number("COC(=O)CNC(=O)COc1cc(O)c2c(=O)c(-c3ccc(O)cc3)coc2c1")
1.66
>>> readout_number("COC(=O)C(NC(=O)COc1cc(O)c2c(=O)c(-c3ccc(O)cc3)coc2c1)C(C)C (centres unmarked)")
1.24

Please supply the value of reported n (binding sites) for the item O=c1c(-c2ccc(O)cc2)coc2cc(O)cc(O)c12 1.37

###

- Tested target: BSA (Bos taurus)
- Construct: purchased Aladdin's Reagent Co., Ltd. (Shanghai, China)
- Experiment summary: Fluorescence quenching of BSA (Stern-Volmer, double-log, van't Hoff)
- Assay type: binding, bovine
- Condition context: T 298 K, ΔGexp = ΔH − TΔS
- Procedure: Fluorescence spectra were carried on a F-7000 fluorescence spectrophotometer (Japan) fitted out with a 1.0 cm quartz dish. The excitation wavelength was set at 280 nm with 5/5 nm slit widths, while the emission wavelength ranged from 290 nm to 500 nm at different temperatures. […] The Stern–Volmer equation is often applied to reveal the fluorescence quenching mechanism:[19]1 [drawing 1] where F0 and F are the fluorescence intensities of complex with and without of quencher, respectively.[18] […]
# if value of ΔGexp reaches -40 kJ/M, tag t; if it stays below, tag f

>>> class_name("COC(=O)C(NC(=O)COc1cc(O)c2c(=O)c(-c3ccc(O)cc3)coc2c1)C(C)C (centres unmarked)")
"f"
>>> class_name("COC(=O)C(C)NC(=O)COc1cc(O)c2c(=O)c(-c3ccc(O)cc3)coc2c1 (centres unmarked)")
"f"
>>> class_name("COC(=O)CNC(=O)COc1cc(O)c2c(=O)c(-c3ccc(O)cc3)coc2c1")
"f"

From here, focus on the item given below.
State whether the measured ΔGexp reaches -40 kJ/M, counting equality as reaching it, for O=c1c(-c2ccc(O)cc2)coc2cc(O)cc(O)c12 t

###

- Tested target: BSA (Bos taurus, UniProt P02769)
- Construct: purchased Aladdin's Reagent Co., Ltd. (Shanghai, China)
- Experiment summary: Fluorescence quenching of BSA (Stern-Volmer, double-log, van't Hoff)
- Format: binding, bovine
- Condition context: T 310 K, ΔGexp = ΔH − TΔS
Criterion: ΔGexp strictly under -40 kJ/M. Met: class 1. Not met: class 0.

Example entries and their recorded answers appear below.
>>> class_name("COC(=O)C(NC(=O)COc1cc(O)c2c(=O)c(-c3ccc(O)cc3)coc2c1)C(C)C (centres unmarked)")
"class 0"
>>> class_name("COC(=O)C(C)NC(=O)COc1cc(O)c2c(=O)c(-c3ccc(O)cc3)coc2c1 (centres unmarked)")
"class 0"
>>> class_name("COC(=O)CNC(=O)COc1cc(O)c2c(=O)c(-c3ccc(O)cc3)coc2c1")
"class 1"
>>> class_name("COC(=O)C(CC(C)C)NC(=O)COc1cc(O)c2c(=O)c(-c3ccc(O)cc3)coc2c1 (centres unmarked)")
"class 0"

From here, focus on the item given below.
Lab note: confirm whether the reported ΔGexp for this compound is below -40 kJ/M, equality not counting. compound: O=c1c(-c2ccc(O)cc2)coc2cc(O)cc(O)c12 class 0

###

- Tested target: BSA (Bos taurus, UniProt P02769)
- Construct: purchased Aladdin's Reagent Co., Ltd. (Shanghai, China)
- Experiment summary: Fluorescence quenching of BSA (Stern-Volmer, double-log, van't Hoff)
- Assay type: binding, bovine
- Condition context: T 306 K, τ0 = 10^−8 s
Assay endpoint: K q (quenching rate constant)

Quick batch: K q (quenching rate constant) for everything below.
1. O=c1c(-c2ccc(O)cc2)coc2cc(O)cc(O)c12 [Genistein]
2. COC(=O)CNC(=O)COc1cc(O)c2c(=O)c(-c3ccc(O)cc3)coc2c1 [4a]
3. COC(=O)C(CC(C)C)NC(=O)COc1cc(O)c2c(=O)c(-c3ccc(O)cc3)coc2c1 (centres unmarked) [4d]

1: 5.3472 10^12 M^−1 s^−1; 2: 9.0645 10^12 M^−1 s^−1; 3: 4.8535 10^12 M^−1 s^−1

Quick batch: K q (quenching rate constant) for everything below.
1. COC(=O)C(NC(=O)COc1cc(O)c2c(=O)c(-c3ccc(O)cc3)coc2c1)C(C)C (centres unmarked) [4c]
2. COC(=O)C(C)NC(=O)COc1cc(O)c2c(=O)c(-c3ccc(O)cc3)coc2c1 (centres unmarked) [4b]

5.0010 10^12 M^−1 s^−1
6.9409 10^12 M^−1 s^−1

###

- Tested target: BSA (Bos taurus)
- Construct: purchased Aladdin's Reagent Co., Ltd. (Shanghai, China)
- Experiment summary: Fluorescence quenching of BSA (Stern-Volmer, double-log, van't Hoff)
- Format: binding, bovine
- Condition context: T 298 K; read-out: K b (binding constant) (converted)
Assay endpoint: Kd (nM)
Numbers only, in nM.

Previously resolved entries follow.
>>> readout_number("O=c1c(-c2ccc(O)cc2)coc2cc(O)cc(O)c12")
256
>>> readout_number("COC(=O)CNC(=O)COc1cc(O)c2c(=O)c(-c3ccc(O)cc3)coc2c1")
2.3
>>> readout_number("COC(=O)C(C)NC(=O)COc1cc(O)c2c(=O)c(-c3ccc(O)cc3)coc2c1 (centres unmarked)")
64.9
>>> readout_number("COC(=O)C(NC(=O)COc1cc(O)c2c(=O)c(-c3ccc(O)cc3)coc2c1)C(C)C (centres unmarked)")
84

Please supply the value of reported Kd for the item COC(=O)C(CC(C)C)NC(=O)COc1cc(O)c2c(=O)c(-c3ccc(O)cc3)coc2c1 (centres unmarked) 150

###

- Tested target: BSA (Bos taurus)
- Construct: purchased Aladdin's Reagent Co., Ltd. (Shanghai, China)
- Experiment summary: Fluorescence quenching of BSA (Stern-Volmer, double-log, van't Hoff)
- Type: binding, bovine
- Condition context: T 306 K, BSA 1 μM, pH 7.4
Assay endpoint: K SV (quenching constant)

Previously resolved entries follow.
>>> result("COC(=O)C(CC(C)C)NC(=O)COc1cc(O)c2c(=O)c(-c3ccc(O)cc3)coc2c1 (centres unmarked)")
"4.8535 ± 0.0465 10^4 M^−1"
>>> result("COC(=O)C(NC(=O)COc1cc(O)c2c(=O)c(-c3ccc(O)cc3)coc2c1)C(C)C (centres unmarked)")
"5.0010 ± 0.1067 10^4 M^−1"
>>> result("O=c1c(-c2ccc(O)cc2)coc2cc(O)cc(O)c12")
"5.3472 ± 0.1242 10^4 M^−1"
>>> result("COC(=O)C(C)NC(=O)COc1cc(O)c2c(=O)c(-c3ccc(O)cc3)coc2c1 (centres unmarked)")
"6.9409 ± 0.0956 10^4 M^−1"

Please supply the value of reported K SV (quenching constant) for the item COC(=O)CNC(=O)COc1cc(O)c2c(=O)c(-c3ccc(O)cc3)coc2c1 9.0645 ± 0.0720 10^4 M^−1
